The measured values listed here are drawn from the kinase profiling compilation of Christmann-Franck et al. (2016).

Tested on: PIK3CA (human), P42336 [E545K]
Sequence (P42336 whole entry E545K, looked up): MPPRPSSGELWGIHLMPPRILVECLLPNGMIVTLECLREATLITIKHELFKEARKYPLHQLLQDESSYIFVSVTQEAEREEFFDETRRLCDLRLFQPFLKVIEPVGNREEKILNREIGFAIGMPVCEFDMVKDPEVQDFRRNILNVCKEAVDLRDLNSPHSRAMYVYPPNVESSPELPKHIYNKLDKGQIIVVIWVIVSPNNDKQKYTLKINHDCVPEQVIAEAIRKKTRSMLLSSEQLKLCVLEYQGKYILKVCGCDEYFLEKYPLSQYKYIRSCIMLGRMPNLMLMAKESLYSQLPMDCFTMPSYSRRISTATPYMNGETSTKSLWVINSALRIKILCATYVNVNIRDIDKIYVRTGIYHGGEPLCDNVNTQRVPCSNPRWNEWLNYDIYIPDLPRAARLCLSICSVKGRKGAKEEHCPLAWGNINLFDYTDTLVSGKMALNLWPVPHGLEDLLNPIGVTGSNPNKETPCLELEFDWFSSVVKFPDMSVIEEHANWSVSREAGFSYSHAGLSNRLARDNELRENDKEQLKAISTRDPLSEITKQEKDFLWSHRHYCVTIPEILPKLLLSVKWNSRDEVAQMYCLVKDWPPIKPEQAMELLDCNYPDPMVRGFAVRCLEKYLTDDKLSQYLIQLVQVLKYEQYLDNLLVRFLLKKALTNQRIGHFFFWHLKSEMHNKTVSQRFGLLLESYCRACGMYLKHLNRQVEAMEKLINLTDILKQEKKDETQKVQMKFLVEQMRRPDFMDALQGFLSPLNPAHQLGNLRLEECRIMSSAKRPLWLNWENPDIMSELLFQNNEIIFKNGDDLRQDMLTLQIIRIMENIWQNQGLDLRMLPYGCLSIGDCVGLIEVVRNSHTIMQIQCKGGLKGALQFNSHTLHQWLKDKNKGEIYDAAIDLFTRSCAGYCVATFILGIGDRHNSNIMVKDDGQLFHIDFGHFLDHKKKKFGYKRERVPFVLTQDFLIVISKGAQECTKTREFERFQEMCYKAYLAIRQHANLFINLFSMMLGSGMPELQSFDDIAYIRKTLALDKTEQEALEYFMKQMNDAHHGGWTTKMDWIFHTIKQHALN
Assay: KINOMEscan competition binding
Conditions: compound 10.0 µM

>  <compound>
COc1cc(C(=O)NC2CCN(C)CC2)ccc1Nc1ncc2c(n1)N(C1CCCC1)C(C)CC(=O)N2C (centres undefined)

>  <kinase still bound, per cent of control>
100%

$$$$
>  <compound>
CC(=O)c1c(C)c2cnc(Nc3ccc(N4CCNCC4)cn3)nc2n(C2CCCC2)c1=O

>  <kinase still bound, per cent of control>
75%

$$$$
>  <compound>
N#Cc1cc(-c2ccnc(Nc3ccc(-n4cnc(-c5cccnc5)n4)cc3)n2)cc(N2CCOCC2)c1

>  <kinase still bound, per cent of control>
100%

$$$$
>  <compound>
C=CC(=O)Nc1cccc(Nc2nc(N[C@H]3CC[C@H](N(C)C)CC3)nc3c2ncn3C(C)C)c1

>  <kinase still bound, per cent of control>
100%

$$$$
>  <compound>
N#CCNC(=O)c1ccc(-c2ccnc(Nc3ccc(N4CCOCC4)cc3)n2)cc1

>  <kinase still bound, per cent of control>
100%

$$$$
>  <compound>
Cn1c(=O)n(-c2ccc(C(C)(C)C#N)cc2)c2c3cc(-c4cnc5ccccc5c4)ccc3ncc21

>  <kinase still bound, per cent of control>
3%

$$$$
>  <compound>
CCC(=O)N1CCN(c2ccc(-n3c(=O)ccc4cnc5ccc(-c6cnc7ccccc7c6)cc5c43)cc2C(F)(F)F)CC1

>  <kinase still bound, per cent of control>
0.6%

$$$$
>  <compound>
O=C1Nc2ccc(I)cc2/C1=C/c1cc(Br)c(O)c(Br)c1

>  <kinase still bound, per cent of control>
100%

$$$$
>  <compound>
O=C(Nc1cccc(Nc2ncc(Br)c(NCCc3cnc[nH]3)n2)c1)N1CCCC1

>  <kinase still bound, per cent of control>
100%

$$$$
